# pEC50 annotations
target: GHS-R1a receptor (human ghrelin receptor) (Homo sapiens); assay: Aequorin functional assay (ghrelin receptor), standard method B; type: cell-based
Sequence (Q92847 whole entry): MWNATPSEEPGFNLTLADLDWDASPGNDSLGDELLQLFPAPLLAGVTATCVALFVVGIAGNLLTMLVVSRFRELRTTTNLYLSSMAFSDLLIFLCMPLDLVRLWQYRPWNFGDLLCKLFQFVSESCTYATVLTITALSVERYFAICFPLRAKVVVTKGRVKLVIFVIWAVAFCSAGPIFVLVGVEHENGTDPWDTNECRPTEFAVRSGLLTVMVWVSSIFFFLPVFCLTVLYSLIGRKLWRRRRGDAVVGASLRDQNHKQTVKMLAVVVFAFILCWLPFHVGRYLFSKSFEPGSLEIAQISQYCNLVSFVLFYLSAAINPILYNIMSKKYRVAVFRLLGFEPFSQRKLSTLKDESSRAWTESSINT
pEC50: −log10 of the molar value.

Kindly note the recorded pEC50 for C[C@@H]1CN[C@@H](C2CC2)C(=O)N(C)[C@H](C)C(=O)N[C@H](Cc2ccc(Cl)cc2)C(=O)NCCCc2ccc(F)cc2O1 [Compound 877] , which is ≥ 7.30

Read the next record carefully.
Kindly note the recorded pEC50 for CC(C)C[C@H]1NC(=O)[C@@H](C)N(C)C(=O)[C@H](C2CC2)NC[C@@H](C)Oc2ccccc2CC[C@H](C)NC1=O [Compound 807] , which is ≥ 7.30
